Test system: NCI-H23
Assay: NCI tumour cell line growth inhibition, 48 h
Activity calls are given as the source filed them. No stated cut-off is given here; in the data, active = GI50 up to about 1.1 µM and inactive = higher.
Parameter GI50: see the listing below.

{"COMPOUND": "CN1CCCN(C)CCCN(C)CCCN(C)CCC1", "GI50": "> 100 µM (inactive)"}
{"COMPOUND": "COC(=O)/C=C\\C(C#N)(C#N)/N=C/c1ccc(Br)s1", "GI50": "9.2 µM (inactive)"}
{"COMPOUND": "Cc1ccc(-c2n[nH]c(=O)n2N2C(=O)c3ccccc3C2=O)cc1", "GI50": "> 100 µM (inactive)"}
{"COMPOUND": "Nc1ccc(N)c2c1C(=O)c1ccccc1C2=O", "GI50": "17.7 µM (inactive)"}
{"COMPOUND": "O=C1C[C@@]23CCC4(CC2CCC[C@H]3O1)OCCO4 (some centres undefined)", "GI50": "> 100 µM (inactive)"}
{"COMPOUND": "CC(C)Oc1c(O)c2c3c(oc(=O)n3C=CC2c2ccccc2F)c1OC(C)C (centres undefined)", "GI50": "30.5 µM (inactive)"}
{"COMPOUND": "CC1CN(c2ccc(Cl)cc2)CC(C)(C)OC(=O)O1 (centres undefined)", "GI50": "> 100 µM (inactive)"}
{"COMPOUND": "O=C(NN=C(c1ccccc1)c1ccccc1)/C(O)=C/C(=O)c1ccc(Cl)cc1", "GI50": "23.2 µM (inactive)"}
{"COMPOUND": "NC(=O)C(c1ccccc1)N1OC2C(=O)N(c3cccc4ccccc34)C(=O)C2C1c1c2ccccc2c(Cl)c2ccccc12 (centres undefined)", "GI50": "9.2 µM (inactive)"}
